Recorded Mean accuracy (%), Table S10 for the following compounds
test: Autosampler stability at 4 °C of extracted antibiotic-spiked plasma/CAMHB samples; details: CAMHB extracted samples, 15 h autosampler 4 °C; MQC (nominal as E14)
The answer is to be given in %; state only the numeric part.

Solved entries (count: 3):
[[record]]
compound = "CN(C)c1cc(NC(=O)CNC(C)(C)C)c(O)c2c1C[C@H]1C[C@H]3[C@H](N(C)C)C(O)=C(C(N)=O)C(=O)[C@@]3(O)C(O)=C1C2=O [Tigecycline, tigecycline]"
observed_result = 100.2

[[record]]
compound = "C[C@H]1[C@H](NC(=O)/C(=N\\OC(C)(C)C(=O)O)c2csc(N)n2)C(=O)N1S(=O)(=O)O [Aztreonam, aztreonam]"
observed_result = 104.7

[[record]]
compound = "CCN1CCN(C(=O)N[C@@H](C(=O)N[C@@H]2C(=O)N3[C@@H]2SC(C)(C)[C@@H]3C(=O)O)c2ccccc2)C(=O)C1=O [Piperacillin, piperacillin]"
observed_result = 87.6


IN: // Input: C[C@]1(Cn2ccnn2)[C@H](C(=O)O)N2C(=O)C[C@H]2S1(=O)=O [Tazobactam, tazobactam] . Output its Mean accuracy (%), Table S10 only.
OUT: 107.7

IN: // Input: Cn1c(N)c(NC(=O)NCCN)c[n+]1CC1=C(C(=O)O)N2C(=O)[C@@H](NC(=O)/C(=N\OC(C)(C)C(=O)[O-])c3nsc(N)n3)[C@H]2SC1 [Ceftolozane, ceftolozane] . Output its Mean accuracy (%), Table S10 only.
OUT: 111.3

###

assay: Long-term storage stability of antibiotics in combination with fosfomycin spiked in plasma/CAMHB (−30 °C, −80 °C); assay type: physicochemical; conditions: plasma, combination with fosfomycin, 4 weeks at -30 °C; MQC (nominal as E14)
result type: Mean accuracy (%), Table S12
The answer is to be given in %; state only the numeric part.

Solved entries (count: 2):
[[record]]
smi = "C[C@@H](O)[C@H]1C(=O)N2C(C(=O)O)=C(S[C@@H]3CN[C@H](C(=O)N(C)C)C3)[C@H](C)[C@H]12"
result_type = "Mean accuracy (%), Table S12"
units = "%"
observed_result = 93.8

[[record]]
smi = "C[C@]1(Cn2ccnn2)[C@H](C(=O)O)N2C(=O)C[C@H]2S1(=O)=O"
result_type = "Mean accuracy (%), Table S12"
units = "%"
observed_result = 98.7


IN: // Input: "C[C@H]1[C@H](NC(=O)/C(=N\OC(C)(C)C(=O)O)c2csc(N)n2)C(=O)N1S(=O)(=O)O" . Output its Mean accuracy (%), Table S12 only.
OUT: 96.2

IN: // Input: "C[C@@H]1O[C@@H]1P(=O)(O)O" . Output its Mean accuracy (%), Table S12 only.
OUT: 92.4

###

Recorded Mean accuracy (%), Table S17 for the following compounds
experiment: Long-term storage stability of antibiotics in combination with fosfomycin spiked in plasma/CAMHB (−30 °C, −80 °C); format: physicochemical; conditions: CAMHB, combination with fosfomycin, 2 weeks at -80 °C; HQC (nominal as E15)
The answer is to be given in %; state only the numeric part.

Solved entries (count: 8):
[[record]]
compound = "CN(C)c1cc(NC(=O)CNC(C)(C)C)c(O)c2c1C[C@H]1C[C@H]3[C@H](N(C)C)C(O)=C(C(N)=O)C(=O)[C@@]3(O)C(O)=C1C2=O"
observed_result = 102.3

[[record]]
compound = "C[C@@H](O)[C@H]1C(=O)N2C(C(=O)O)=C(S[C@@H]3CN[C@H](C(=O)N(C)C)C3)[C@H](C)[C@H]12"
observed_result = 99.6

[[record]]
compound = "C[C@@H]1O[C@@H]1P(=O)(O)O"
observed_result = 96.3

[[record]]
compound = "NC(=O)[C@@H]1CC[C@@H]2CN1C(=O)N2OS(=O)(=O)O"
observed_result = 95.3

[[record]]
compound = "C[C@@H](O)[C@H]1C(=O)N2C(C(=O)O)=C(S[C@@H]3CN[C@H](CNS(N)(=O)=O)C3)[C@H](C)[C@H]12"
observed_result = 100.1

[[record]]
compound = "Cn1c(N)c(NC(=O)NCCN)c[n+]1CC1=C(C(=O)O)N2C(=O)[C@@H](NC(=O)/C(=N\\OC(C)(C)C(=O)[O-])c3nsc(N)n3)[C@H]2SC1"
observed_result = 94.1

[[record]]
compound = "CCN1CCN(C(=O)N[C@@H](C(=O)N[C@@H]2C(=O)N3[C@@H]2SC(C)(C)[C@@H]3C(=O)O)c2ccccc2)C(=O)C1=O"
observed_result = 89.6

[[record]]
compound = "C[C@]1(Cn2ccnn2)[C@H](C(=O)O)N2C(=O)C[C@H]2S1(=O)=O"
observed_result = 108.9


IN: // Input: CO/N=C(\C(=O)N[C@@H]1C(=O)N2C(C(=O)[O-])=C(C[N+]3(C)CCCC3)CS[C@H]12)c1csc(N)n1 [Cefepime, cefepime] . Output its Mean accuracy (%), Table S17 only.
OUT: 94.8

IN: // Input: "CC(C)(O/N=C(\C(=O)N[C@@H]1C(=O)N2C(C(=O)[O-])=C(C[n+]3ccccc3)CS[C@H]12)c1csc(N)n1)C(=O)O" . Output its Mean accuracy (%), Table S17 only.
OUT: 103.0

IN: // Input: "C[C@H]1[C@H](NC(=O)/C(=N\OC(C)(C)C(=O)O)c2csc(N)n2)C(=O)N1S(=O)(=O)O" . Output its Mean accuracy (%), Table S17 only.
OUT: 100.2

src = paper PMC8772704
